Test system: KMS12BM
Test: Apoptosis of lymphoid malignancy cell lines: KMS12BM
Type: cell-based
Settings: Homo sapiens, KMS-12-BM, Multiple myeloma, 24 hours, read-out: Administration Dose (mean ± SD, μmol/L) Lethal Dose 50 (Apoptosis)
Catalogue of EC50 readings, one per entry.

- compound: "Cc1cc(C)c(OCC(=O)N/N=C/c2ccc3cc[nH]c3c2)c(C2CCOCC2)c1"
  tested on: "KMS12BM"
  scale unit: "µmol/L"
  EC50: 0.22
- compound: "Cc1cc(C)c(OCC(=O)N/N=C/c2ccc3cc[nH]c3c2)c(C2CCOC2)c1 (centres unmarked)"
  tested on: "KMS12BM"
  scale unit: "µmol/L"
  EC50: 0.94

###

Test system: Jurkat T cells
Assay: Pro-apoptotic activity on Jurkat T cells (FITC-Annexin V / 7-AAD flow cytometry)
Type: cell-based
Conditions: Homo sapiens, 72 hours, cells stained with FITC-Annexin V and 7-AAD among total cells, read-out: Jurkat T Cell Apoptosis (% in 5 μM)
reported property: cytotoxicity at 5 µM

- compound: "COc1ccc(OCC(=O)N/N=C/c2ccc3cc[nH]c3c2)c(-c2ccco2)c1"
  reported property: "cytotoxicity at 5 µM"
  result: "100%"
- compound: "Cc1cc(F)cc(C2CCOC2)c1OCC(=O)N(C)/N=C/c1ccc2ccn(C)c2c1 (centres unmarked)"
  reported property: "cytotoxicity at 5 µM"
  result: "100%"
- compound: "Cc1ccccc1OCC(=O)N/N=C/c1ccc2cc[nH]c2c1"
  reported property: "cytotoxicity at 5 µM"
  result: "100%"
- compound: "Cc1cccc(OCC(=O)N/N=C/c2ccc3cc[nH]c3c2)c1C"
  reported property: "cytotoxicity at 5 µM"
  result: "95%"
- compound: "Cc1cc(C)c(OCC(=O)N/N=C/c2ccc3cc[nH]c3c2)c(-c2ccco2)c1"
  reported property: "cytotoxicity at 5 µM"
  result: "100%"
- compound: "Cc1cc(C)c(OCC(=O)N/N=C/c2ccc3cc[nH]c3c2)c(-c2cccs2)c1"
  reported property: "cytotoxicity at 5 µM"
  result: "95%"
- compound: "Cc1cc(OCC(=O)N/N=C/c2ccc3cc[nH]c3c2)cc(C)n1"
  reported property: "cytotoxicity at 5 µM"
  result: "90%"
- compound: "O=C(COc1cccc(-c2cccnc2)c1)N/N=C/c1cccc2[nH]ccc12"
  reported property: "cytotoxicity at 5 µM"
  result: "100%"
- compound: "CCc1nc(C)ccc1OCC(=O)N/N=C/c1cccc2[nH]ccc12"
  reported property: "cytotoxicity at 5 µM"
  result: "100%"
- compound: "Cc1cccc(-c2ccoc2)c1OCC(=O)N/N=C/c1ccc2cc[nH]c2c1"
  reported property: "cytotoxicity at 5 µM"
  result: "100%"
- compound: "Cc1ncccc1OCC(=O)N/N=C/c1ccc2cc[nH]c2c1"
  reported property: "cytotoxicity at 5 µM"
  result: "90%"
- compound: "Cc1cc(C2CCOC2)cc(C)c1OCC(=O)N/N=C/c1ccc2cc[nH]c2c1 (centres unmarked)"
  reported property: "cytotoxicity at 5 µM"
  result: "100%"
- compound: "COc1ccc(OCC(=O)N/N=C/c2cccc3[nH]ccc23)c(C(C)(C)C)c1"
  reported property: "cytotoxicity at 5 µM"
  result: "100%"
- compound: "O=C(COc1cccnc1-c1ccoc1)N/N=C/c1ccc2cc[nH]c2c1"
  reported property: "cytotoxicity at 5 µM"
  result: "100%"
- compound: "Cc1cc(C)c(OCC(=O)N/N=C/c2cccc3[nH]ccc23)c(-c2ccco2)c1"
  reported property: "cytotoxicity at 5 µM"
  result: "100%"
- compound: "Cc1cc(F)ccc1OCC(=O)N/N=C/c1ccc2cc[nH]c2c1"
  reported property: "cytotoxicity at 5 µM"
  result: "100%"
- compound: "Cc1cccc(C2CCOC2)c1OCC(=O)N/N=C/c1cccc2[nH]ccc12 (centres unmarked)"
  reported property: "cytotoxicity at 5 µM"
  result: "100%"
- compound: "Cc1cc(C)c(OCC(=O)N(C)/N=C/c2ccc3ccn(C)c3c2)c(C2CCOC2)c1 (centres unmarked)"
  reported property: "cytotoxicity at 5 µM"
  result: "100%"
- compound: "Cc1ncccc1OCC(=O)N(CO)/N=C/c1cccc2[nH]ccc12"
  reported property: "cytotoxicity at 5 µM"
  result: "100%"
- compound: "Cc1cc(F)cc(C2CCOC2)c1OCC(=O)N/N=C/c1ccc2cc[nH]c2c1 (centres unmarked)"
  reported property: "cytotoxicity at 5 µM"
  result: "100%"
- compound: "COc1ccc(OCC(=O)N/N=C/c2ccc3cc[nH]c3c2)c(C(C)(C)C)c1"
  reported property: "cytotoxicity at 5 µM"
  result: "100%"
- compound: "CCc1nc(C)ccc1OCC(=O)N/N=C/c1ccc2cc[nH]c2c1"
  reported property: "cytotoxicity at 5 µM"
  result: "100%"
- compound: "N#Cc1cc(Br)ccc1OCC(=O)N/N=C/c1cccc2[nH]ccc12"
  reported property: "cytotoxicity at 5 µM"
  result: "80%"
- compound: "Cc1cc(OCC(=O)N/N=C/c2cccc3[nH]ccc23)nc(C)n1"
  reported property: "cytotoxicity at 5 µM"
  result: "100%"
- compound: "O=C(COc1cccc(-c2ccco2)c1)N/N=C/c1cccc2[nH]ccc12"
  reported property: "cytotoxicity at 5 µM"
  result: "90%"
- compound: "Cc1cc(C)c(OCC(=O)N/N=C/c2cccc3c2ccn3S(=O)(=O)c2ccccc2)c(C)c1"
  reported property: "cytotoxicity at 5 µM"
  result: "100%"
- compound: "Cc1cc(C)c(OCC(=O)N/N=C/c2ccc3cc[nH]c3c2)c(Br)c1"
  reported property: "cytotoxicity at 5 µM"
  result: "100%"
- compound: "Cc1cc(C)c(OCC(=O)N(COC(=O)c2ccc(CN3CCOCC3)cc2)/N=C/c2ccc3cc[nH]c3c2)c(C)c1"
  reported property: "cytotoxicity at 5 µM"
  result: "100%"
- compound: "O=C(COc1cccnc1N1CCCC1)N/N=C/c1ccc2cc[nH]c2c1"
  reported property: "cytotoxicity at 5 µM"
  result: "100%"
